Cited source: the supplement of paper PMC8728848

# target desc: Neu5Ac(a2-3)Gal(b1-4)GlcNAc(b1-2)Man
# run description: glycan array binding signal (z-score within array); higher = stronger binding
# study conditions: glycan notation: IUPAC condensed, linker removed
The full list was thinned out, with the strongest signals kept by preference.
observed property: glycan array binding signal (z-score)
Give the value as a plain number.

>  <binder>
GSL-I-B4 (Griffonia simplicifolia) (protein) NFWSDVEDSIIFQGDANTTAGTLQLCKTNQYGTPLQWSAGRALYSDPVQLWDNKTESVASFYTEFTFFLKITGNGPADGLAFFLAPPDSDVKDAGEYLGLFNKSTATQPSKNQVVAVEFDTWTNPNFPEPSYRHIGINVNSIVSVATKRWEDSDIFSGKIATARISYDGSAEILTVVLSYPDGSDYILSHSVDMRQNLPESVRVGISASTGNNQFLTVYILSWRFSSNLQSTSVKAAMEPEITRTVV

>  <glycan array binding signal (z-score)>
-0.197

$$$$

So what's the measured glycan array binding signal (z-score) for this one? RsaA-N-term (Caulobacter crescentus), P35828 (protein) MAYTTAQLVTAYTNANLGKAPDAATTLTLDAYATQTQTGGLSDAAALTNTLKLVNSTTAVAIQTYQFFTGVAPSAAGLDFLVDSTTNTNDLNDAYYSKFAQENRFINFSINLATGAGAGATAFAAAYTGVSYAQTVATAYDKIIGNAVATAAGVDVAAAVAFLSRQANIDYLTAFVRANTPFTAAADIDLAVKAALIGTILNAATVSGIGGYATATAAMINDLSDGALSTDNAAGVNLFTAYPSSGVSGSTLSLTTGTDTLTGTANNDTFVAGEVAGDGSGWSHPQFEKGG 2.51

So what's the measured glycan array binding signal (z-score) for this one? EULS2 M4 (Oryza sativa) (protein) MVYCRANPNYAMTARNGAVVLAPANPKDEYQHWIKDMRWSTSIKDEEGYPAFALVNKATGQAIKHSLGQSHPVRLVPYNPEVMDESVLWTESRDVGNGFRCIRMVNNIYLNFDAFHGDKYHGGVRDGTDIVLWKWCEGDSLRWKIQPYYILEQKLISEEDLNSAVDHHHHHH 7.63

So what's the measured glycan array binding signal (z-score) for this one? LTL (Lotus tetragonolobus), P19664 (protein) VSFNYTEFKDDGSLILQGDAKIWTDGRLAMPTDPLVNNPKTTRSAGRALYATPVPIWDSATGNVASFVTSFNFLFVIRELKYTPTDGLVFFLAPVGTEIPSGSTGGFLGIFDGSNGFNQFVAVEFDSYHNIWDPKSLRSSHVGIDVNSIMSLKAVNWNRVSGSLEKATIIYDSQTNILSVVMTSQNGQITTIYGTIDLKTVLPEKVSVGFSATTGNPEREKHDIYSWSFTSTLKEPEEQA 0.022

So what's the measured glycan array binding signal (z-score) for this one? VLRB.aGPA.23-GCN4-biotin (Petromyzon marinus) (protein) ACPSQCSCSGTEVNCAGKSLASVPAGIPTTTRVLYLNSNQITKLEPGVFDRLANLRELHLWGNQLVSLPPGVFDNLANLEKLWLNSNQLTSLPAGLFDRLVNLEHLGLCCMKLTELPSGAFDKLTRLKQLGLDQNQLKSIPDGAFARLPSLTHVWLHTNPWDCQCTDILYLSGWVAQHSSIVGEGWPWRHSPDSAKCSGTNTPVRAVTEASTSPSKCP -0.068
